In this section, each of the compounds is paired with its reported pIC50.
# Assay Target: UniProt P24557
# Sequence (P24557 1-533): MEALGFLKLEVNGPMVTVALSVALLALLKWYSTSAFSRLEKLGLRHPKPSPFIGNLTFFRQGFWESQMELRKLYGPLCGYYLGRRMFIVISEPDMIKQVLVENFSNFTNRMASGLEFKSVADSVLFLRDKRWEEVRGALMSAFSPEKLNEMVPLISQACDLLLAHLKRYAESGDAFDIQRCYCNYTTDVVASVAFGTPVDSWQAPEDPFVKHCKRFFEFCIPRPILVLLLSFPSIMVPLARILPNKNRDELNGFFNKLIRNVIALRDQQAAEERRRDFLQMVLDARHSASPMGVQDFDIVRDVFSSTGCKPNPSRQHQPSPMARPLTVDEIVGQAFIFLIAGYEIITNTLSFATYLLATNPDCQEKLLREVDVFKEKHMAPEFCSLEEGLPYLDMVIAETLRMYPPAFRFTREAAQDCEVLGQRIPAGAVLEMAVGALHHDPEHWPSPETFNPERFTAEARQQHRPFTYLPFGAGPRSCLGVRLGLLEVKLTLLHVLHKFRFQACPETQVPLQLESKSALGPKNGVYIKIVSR
pIC50: −log10 of the molar value.

Smiles Entry | pIC50
c1ccc(-n2cccc2Cn2ccnc2)cc1 | 8.72
c1ccc(Cn2cccc2Cn2ccnc2)cc1 | 5.77

====

# Assay Target: Cyclo-oxygenase (Ovis aries, UniProt P05979)
# Construct: Ram seminal vesicle microsomes; from tissue; host or cells: ram seminal vesicle (microsomes)
# Sequence (P05979 25-600): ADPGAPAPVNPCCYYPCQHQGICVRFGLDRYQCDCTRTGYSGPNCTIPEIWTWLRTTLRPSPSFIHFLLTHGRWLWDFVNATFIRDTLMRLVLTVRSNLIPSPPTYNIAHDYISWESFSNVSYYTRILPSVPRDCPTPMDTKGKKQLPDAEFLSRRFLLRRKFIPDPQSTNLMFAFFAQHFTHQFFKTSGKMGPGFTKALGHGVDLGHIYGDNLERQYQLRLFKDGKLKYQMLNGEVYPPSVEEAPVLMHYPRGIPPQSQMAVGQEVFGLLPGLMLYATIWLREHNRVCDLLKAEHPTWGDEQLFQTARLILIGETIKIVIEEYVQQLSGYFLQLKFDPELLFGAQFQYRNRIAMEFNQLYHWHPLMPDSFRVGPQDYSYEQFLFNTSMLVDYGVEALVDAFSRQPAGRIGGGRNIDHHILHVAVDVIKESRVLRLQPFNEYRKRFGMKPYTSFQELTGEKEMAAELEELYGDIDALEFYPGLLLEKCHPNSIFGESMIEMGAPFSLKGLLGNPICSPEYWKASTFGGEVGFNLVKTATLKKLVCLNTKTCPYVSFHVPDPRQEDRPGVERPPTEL
# Method: Cyclo-oxygenase inhibition in vitro (isometric tension of rabbit aorta strip)
# Format: biochemical
# Stated Conditions: ram seminal vesicle microsomes; arachidonic acid 100 μM, 1 min, 22°; 5 min pre-incubation; read-out: Molar concentration causing 50% inhibition of Cyclo-oxygenase
# Description: The effect of the compounds of the formula (I) on the thromboxane synthetase enzyme, and the prostacyclin synthetase and cyclo-oxygenase enzyme has been measured by the following in vitro enzyme assays: Ram seminal vesicle microsomes (Biochemistry, 1971, 10, 2372) are incubated with arachidonic acid (100 μM: 1 min.: 22°) to produce PGH2 and aliquots of the reaction mixture injected into a stream of Krebs-bicarbonate at 37° C. […]
pIC50: −log10 of the molar value.
Property Label: pIC50

Smiles Entry | Result
O=C(O)c1ccc(Cn2cccc2Cn2ccnc2)cc1 | < 4.00
